Data credit: PubChem BioAssay (NCI)

tested on: HL-60(TB) leukemia; experiment: NCI-60 one-dose screen, 48 h (100 = growth as untreated, 0 = no growth, -100 = all killed); details: 10 µM unless noted
The panel holds about 83,000 compounds, 20% with a hit somewhere; the sample as a whole holds those more often.
For each entry below, report its growth value.
Report only the number, with the unit % understood.

Task: Requested read-out: growth. Entry: O=C1Nc2cc(Cl)ccc2Oc2cc(Oc3ccccc3)ccc21
Output: 38.6

Task: Requested read-out: growth. Entry: COc1cc(C(O)C2C(=O)OCC2C2(c3ccc4c(c3)OCO4)SCCCS2)cc(OC)c1OC (stereo not given)
Output: 91.8

Task: Requested read-out: growth. Entry: CN(C)CCCC1(c2ccc(F)cc2)OCc2cc(-c3ccc(C(F)(F)F)nc3)ccc21 (stereo not given)
Output: 43.1

Task: Requested read-out: growth. Entry: COc1ccc(N/C=C/C2=[N+](C)c3ccccc3C2(C)C)c(OC)c1
Output: 99.3

Task: Requested read-out: growth. Entry: O=c1oc2ccc3ccccc3c2cc1-c1ccnc2[nH]c(=S)[nH]c(=O)c12
Output: 87.3

----------
test system: HL-60(TB) leukemia; assay: NCI-60 one-dose screen, 48 h (100 = growth as untreated, 0 = no growth, -100 = all killed); details: 10 µM unless noted
About 83,000 compounds went through this panel and 20% of them were active in at least one assay; those are over-represented in the sample as a whole.
reported-endpoint: growth (%)
Report only the number, with the unit % understood.

Task: Requested read-out: growth. Entry: Cc1c2cccnc2c(C)c2c1c1cc(CO)ccc1n2C
Output: 31

Task: Requested read-out: growth. Entry: Cc1nc2ccccc2c(/C=C/c2ccc(F)cc2)c1C(N)=O
Output: 81.1

Task: Requested read-out: growth. Entry: CCOC(=O)C1=C(C)N2C(=NC3=C(CCCC/C3=C\c3cc(OC)c(OC)c(OC)c3)C2c2cc(OC)c(OC)c(OC)c2)S1 (stereo not given)
Output: 49.9

Task: Requested read-out: growth. Entry: Clc1ccc(Nc2scc3[n+]2CCC3)cc1
Output: 98.3

Task: Requested read-out: growth. Entry: COCCCNc1nc(NC(=O)c2cc(OC)cc(OC)c2)cc(-c2cccnc2)n1
Output: 90.2

Task: Requested read-out: growth. Entry: CCOC(=O)c1sc(NC(=O)c2cc(OC)c(OC)c(OC)c2)nc1C
Output: 102

Task: Requested read-out: growth. Entry: CC(C)c1ccccc1NC(=O)N1CCC(C(C)C)CC1
Output: 105

Task: Requested read-out: growth. Entry: COc1ccc2c(c1)N(CCO)C1=C(C(=O)OC1)C2c1cc(OC)c(OC)c(OC)c1 (stereo not given)
Output: -16.7

Task: Requested read-out: growth. Entry: C1CCC(N2CN3c4nonc4N4CN(C5CCCCC5)CN5c6nonc6N(C2)C3C45)CC1 (stereo not given)
Output: 100

Task: Requested read-out: growth. Entry: CCOc1cc(/C=C/C(=O)C(C(=O)/C=C/c2ccc(OC(=O)CNc3nnc(C)s3)c(OCC)c2)C(=O)CNc2nnc(C)s2)ccc1OC(=O)CNc1nnc(C)s1
Output: -46.4

Task: Requested read-out: growth. Entry: COc1ccc(C2=NN(C(=O)c3cc(-c4ccc(C)cc4)nc4ccccc34)C(c3cc(-c4ccccc4)nn3-c3ccccc3)C2)cc1 (stereo not given)
Output: 90.6

Task: Requested read-out: growth. Entry: N#CCc1csc(Cc2ccccc2)n1
Output: 95.7

Task: Requested read-out: growth. Entry: NC(Cc1ccc(O)c([N+](=O)[O-])c1)C(=O)O (stereo not given)
Output: 114

Task: Requested read-out: growth. Entry: CCCCCC(=O)Oc1ccc(/C(=C(/C)Cc2ccc(OC)cc2)c2ccc(OCCCN(C)C)cc2)cc1
Output: 62

Task: Requested read-out: growth. Entry: CCOc1c(Cl)cc(CNC(C)C(O)c2ccccc2)cc1OC (stereo not given)
Output: 20.5

Task: Requested read-out: growth. Entry: O=C(CSc1nc2ccccc2c(=O)n1-c1ccccc1)Nc1ccc(C(=O)/C=C/c2ccc(Cl)cc2)cc1
Output: 99

Task: Requested read-out: growth. Entry: CS(=O)(=O)c1ccc(Nc2nc(N[C@H]3CCCC[C@H]3N)nc3cc[nH]c(=O)c23)cc1
Output: -16.9

Task: Requested read-out: growth. Entry: CCCCCN(CCCCC)CCCNc1c2c(nc3ccc(Cl)cc13)CCCC2
Output: 48.8

Task: Requested read-out: growth. Entry: N=C(N)c1ccc(-c2cc(Cl)cc(Cl)c2)cn1
Output: 98.1

Task: Requested read-out: growth. Entry: CC/C(=C(/c1ccc(O)cc1)c1ccc(OCCN2CCCCC2)cc1)c1ccc(OC)cc1
Output: 81.6
